Reported T/C by item:
# System: Mus musculus
# assay-explanation: Percent median survival time of mice intraperitoneally injected with P388 leukemia was determined from tested at 160 mg/kg at day1 dose to that of control
# Type: functional

# smi, system, T/C
records = [
    ("Cc1c2ccnc(C(=O)NCCN(C)C)c2cc2c3cc(OP(=O)(O)O)ccc3n(C)c12", "Mus musculus", "239%"),
    ("Cc1c2ccnc(C(=O)NCCN(C)C)c2cc2c3cc(OS(C)(=O)=O)ccc3n(C)c12", "Mus musculus", "96%"),
    ("Cc1c2ccnc(C(=O)NCCN(C)C)c2cc2c3cc(OC(=O)N4CCOCC4)ccc3n(C)c12", "Mus musculus", "149%"),
    ("Cc1c2ccnc(C(=O)NCCN(C)C)c2cc2c3cc(OCCCCC(=O)O)ccc3n(C)c12", "Mus musculus", "107%"),
    ("Cc1c2ccnc(C(=O)NCCN(C)C)c2cc2c3cc(OC(=O)N4CCN(C)CC4)ccc3n(C)c12", "Mus musculus", "146%"),
]

* * *

# System: Mus musculus
# assay-explanation: Percent median survival time of mice intraperitoneally injected with P388 leukemia was determined from tested at 40 mg/kg at day1,5,9 dose to that of control
# Assay type: functional
# measurement-conditions: route intraperitoneal

# smi, T/C
data = [
    ("Cc1c2ccnc(C(=O)NCCN(C)C)c2cc2c3cc(OP(=O)(O)O)ccc3n(C)c12", "405%"),
    ("Cc1c2ccnc(C(=O)NCCN(C)C)c2cc2c3cc(OC(=O)N(C)C)ccc3n(C)c12", "119%"),
    ("Cc1c2ccnc(C(=O)NCCN(C)C)c2cc2c3cc(OC(=O)N4CCC(N5CCCCC5)CC4)ccc3n(C)c12", "169%"),
    ("Cc1c2ccnc(C(=O)NCCN(C)C)c2cc2c3cc(OS(C)(=O)=O)ccc3n(C)c12", "106%"),
]

* * *

# Test system: Mus musculus
# assay-explanation: Percent median survival time of mice injected with P388 leukemia, at a subcutaneous compound dose of 10 mg/kg
# Assay type: functional
Reported T/C by item:
measured-attribute: T/C

# compound, result
data = [
    ("COC(=O)CCCC(=O)Oc1ccc2c(c1)c1cc3c(C(=O)NCCN(C)C)nccc3c(C)c1n2C", "158%"),
    ("COc1cccc2c1C(=O)c1c(O)c3c(c(O)c1C2=O)C[C@@](O)(C(=O)CO)C[C@@H]3O[C@H]1C[C@H](N)[C@H](O)[C@H](C)O1 [DOXORUBICIN]", "332%"),
    ("CCCCCCCCCCCCCC(=O)Oc1ccc2c(c1)c1cc3c(C(=O)NCCN(C)C)nccc3c(C)c1n2C", "153%"),
    ("Cc1c2ccnc(C(=O)NCCN(C)C)c2cc2c3cc(OC(=O)C4C[C@@H]4c4ccccc4)ccc3n(C)c12 (some centres undefined)", "152%"),
]

* * *

Reported T/C by item:
# Tested on: Mus musculus
# assay-explanation: Percent median survival time of mice injected with B16 melanoma, at a intraperitoneal compound dose of 5 mg/kg

# molecule, value-unit, T/C
records = [
    ("Cc1c2c(C(=O)NCCN(C)C)nccc2c(C)c2c1c1cc(OC(=O)CCCC(=O)O)ccc1n2C", "%", 202),
    ("Cc1c2ccnc(C(=O)NCCN(C)C)c2cc2c3cc(OC(=O)CCCCC4CCSS4)ccc3n(C)c12 (configuration not stated)", "%", 140),
    ("Cc1c2ccnc(C(=O)NCCN(C)C)c2cc2c3cc(OCC4C[C@@H]4c4ccccc4)ccc3n(C)c12 (some centres not stated)", "%", 94),
    ("Cc1c2ccnc(C(=O)NCCN(C)C)c2cc2c3cc(OC(=O)C4C[C@@H]4c4ccccc4)ccc3n(C)c12 (some centres not stated)", "%", 129),
    ("COC(=O)CCCC(=O)Oc1ccc2c(c1)c1cc3c(C(=O)NCCN(C)C)nccc3c(C)c1n2C", "%", 144),
    ("Cc1c2ccnc(C(=O)NCCN(C)C)c2cc2c3cc(O)ccc3n(C)c12", "%", 174),
    ("Cc1c2ccnc(C(=O)NCCN(C)C)c2cc2c3cc(OC(=O)Cc4ccccc4)ccc3n(C)c12", "%", 147),
]
